- experiment: chemical genetic growth profiling, strain panel (AID 1159580);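 also: tested at 20 µM; growth read once vehicle control cultures reached saturation at 30 °C; lower values mean less growth of the strain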
- conditions_used: S. cerevisiae deletion strains, growth OD, locus YPL153C, strain RAD53, hits give low values
Out of some 5,500 compounds screened, about 2,000 (36%) were called active. About 18% were inconclusive and are not listed. The list shows a part of the results.
Friendly reminder: normalized growth below 0.9 is condition met, at or above is condition not met.

A selection of reference data follows.
smiles_representation	class_name
CC(C)(C)c1csc(NC(=O)c2ccc(Cl)cc2Cl)n1	condition not met
O=C(CSCc1nc(-c2ccc(Cl)cc2)cs1)N/N=C\c1cccs1	condition not met
Clc1ccccc1N/N=C\Cc1nnnn1-c1ccccc1	condition met
CC(C)CSc1nnc(CSCc2nc(-c3ccc(Cl)cc3)cs2)n1C	condition not met
C#Cc1cccc(N=Cc2cc(Cl)cc(Br)c2O)c1	condition met

Moving on to the next molecule.
## Task Please let me know if `C/C(=N/Nc1nc(C(C)(C)C)cs1)c1ccc(Cl)c(Cl)c1` shows normalized growth below 0.9.
## Result condition not met
